System: P. aeruginosa NMI 7197/19
Type: cell-based, Pseudomonas aeruginosa
Experimental setup: NMI 7197/19, 20 h
Method: MIC values of the peptidomimetics were evaluated by using the modified Hancock lab protocol in non-binding polystyrene microtiter plates. Bacterial suspensions of ~5 × 10^5 CFU/mL in Mueller-Hinton broth (Difco, Sparks, MD, USA) were prepared with Mg^2+ and Ca^2+ concentrations of 4 mg/L each. […] Following incubation for 20 h of the covered plates at 35 °C (±2 °C) with circular shaking at 180 rpm, the MICs were read.
Quick list: MIC, P. aeruginosa NMI 7197/19 per entry.

Molecule	Result
NCCCC[C@H](NC(=O)CCN(Cc1ccc(F)cc1)C(=O)[C@H](CCCCN)NC(=O)CCOCCOCCOCCOCCNC(=O)CCN(Cc1ccc(F)cc1)C(=O)[C@H](CCCCN)NC(=O)CCN(Cc1ccc(F)cc1)C(=O)[C@H](CCCCN)NC(=O)CCOCCOCCOCCOCCNC(=O)CCN(Cc1ccc(F)cc1)C(=O)[C@H](CCCCN)NC(=O)CCN(Cc1ccc(F)cc1)C(=O)[C@@H](N)CCCCN)C(=O)N(CCC(N)=O)Cc1ccc(F)cc1 [Compound 18, H-[X]2-sPEG4-[X]2-sPEG4-[X]2-NH2]	>64 µg/mL
NCCCC[C@H](NC(=O)CCN(Cc1ccc(F)cc1)C(=O)[C@H](CCCCN)NC(=O)CCN(Cc1ccc(F)cc1)C(=O)[C@H](CCCCN)NC(=O)COCCOCCOCCNC(=O)CCN(Cc1ccc(F)cc1)C(=O)[C@H](CCCCN)NC(=O)CCN(Cc1ccc(F)cc1)C(=O)[C@H](CCCCN)NC(=O)CCN(Cc1ccc(F)cc1)C(=O)[C@@H](N)CCCCN)C(=O)N(CCC(N)=O)Cc1ccc(F)cc1 [Compound 8, H-[X]3-sPEG3-[X]3-NH2]	>64 µg/mL

Now take the following molecule into account.
Hello, I am looking for reported MIC, P. aeruginosa NMI 7197/19 with P. aeruginosa NMI 7197/19 for NCCCC[C@H](NC(=O)CCN(Cc1ccc(F)cc1)C(=O)[C@H](CCCCN)NC(=O)CCN(Cc1ccc(F)cc1)C(=O)[C@H](CCCCN)NC(=O)COCCOCCNC(=O)CCN(Cc1ccc(F)cc1)C(=O)[C@H](CCCCN)NC(=O)CCN(Cc1ccc(F)cc1)C(=O)[C@H](CCCCN)NC(=O)CCN(Cc1ccc(F)cc1)C(=O)[C@@H](N)CCCCN)C(=O)N(CCC(N)=O)Cc1ccc(F)cc1 [Compound 7, H-[X]3-sPEG2-[X]3-NH2] . Could you help?
>64 µg/mL

====

Tested on: E. faecalis ATCC 29212
Assay type: cell-based
Experimental setup: ATCC 29212, 20 h
Assay readout: MIC, EF

For orientation, consider the following solved cases.
Molecule	MIC, EF
NCCCC[C@H](NC(=O)CCN(Cc1ccc(F)cc1)C(=O)[C@H](CCCCN)NC(=O)CCN(Cc1ccc(F)cc1)C(=O)[C@H](CCCCN)NC(=O)COCCOCCOCCN)C(=O)N(CCC(=O)NCCOCCOCCOCC(=O)N[C@@H](CCCCN)C(=O)N(CCC(=O)N[C@@H](CCCCN)C(=O)N(CCC(=O)N[C@@H](CCCCN)C(=O)N(CCC(=O)NCCOCCOCCOCC(N)=O)Cc1ccc(F)cc1)Cc1ccc(F)cc1)Cc1ccc(F)cc1)Cc1ccc(F)cc1 [Compound 13, H-sPEG3-[X]3-sPEG3-[X]3-sPEG3-NH2]	>64 µg/mL
NCCCC[C@H](NC(=O)CCN(Cc1ccc(F)cc1)C(=O)[C@H](CCCCN)NC(=O)CCN(Cc1ccc(F)cc1)C(=O)[C@H](CCCCN)NC(=O)CCN(Cc1ccc(F)cc1)C(=O)[C@H](CCCCN)NC(=O)CCN(Cc1ccc(F)cc1)C(=O)[C@H](CCCCN)NC(=O)CCN(Cc1ccc(F)cc1)C(=O)[C@H](CCCCN)NC(=O)CCOCCOCCOCCOCCN)C(=O)N(CCC(=O)NCCOCCOCCOCCOCCC(N)=O)Cc1ccc(F)cc1 [Compound 5, H-sPEG4-[X]6-sPEG4-NH2]	>64 µg/mL
NCCCC[C@H](NC(=O)CCN(Cc1ccc(F)cc1)C(=O)[C@H](CCCCN)NC(=O)CCN(Cc1ccc(F)cc1)C(=O)[C@H](CCCCN)NC(=O)CCOCCOCCOCCOCCN)C(=O)N(CCC(=O)NCCOCCOCCOCCOCCC(=O)N[C@@H](CCCCN)C(=O)N(CCC(=O)N[C@@H](CCCCN)C(=O)N(CCC(=O)N[C@@H](CCCCN)C(=O)N(CCC(=O)NCCOCCOCCOCCOCCC(N)=O)Cc1ccc(F)cc1)Cc1ccc(F)cc1)Cc1ccc(F)cc1)Cc1ccc(F)cc1 [Compound 14, H-sPEG4-[X]3-sPEG4-[X]3-sPEG4-NH2]	>64 µg/mL
NCCCC[C@H](NC(=O)CCN(Cc1ccc(F)cc1)C(=O)[C@H](CCCCN)NC(=O)COCCOCCOCCNC(=O)CCN(Cc1ccc(F)cc1)C(=O)[C@H](CCCCN)NC(=O)CCN(Cc1ccc(F)cc1)C(=O)[C@H](CCCCN)NC(=O)COCCOCCOCCNC(=O)CCN(Cc1ccc(F)cc1)C(=O)[C@H](CCCCN)NC(=O)CCN(Cc1ccc(F)cc1)C(=O)[C@@H](N)CCCCN)C(=O)N(CCC(N)=O)Cc1ccc(F)cc1 [Compound 17, H-[X]2-sPEG3-[X]2-sPEG3-[X]2-NH2]	>64 µg/mL
NCCCC[C@H](NC(=O)CCN(Cc1ccc(F)cc1)C(=O)[C@H](CCCCN)NC(=O)CCN(Cc1ccc(F)cc1)C(=O)[C@H](CCCCN)NC(=O)CCN(Cc1ccc(F)cc1)C(=O)[C@H](CCCCN)NC(=O)CCN(Cc1ccc(F)cc1)C(=O)[C@H](CCCCN)NC(=O)CCN(Cc1ccc(F)cc1)C(=O)[C@H](CCCCN)NC(=O)COCCOCCN)C(=O)N(CCC(N)=O)Cc1ccc(F)cc1 [Compound 2, H-sPEG2-[X]6-NH2]	>64 µg/mL
NCCCC[C@H](NC(=O)CCN(Cc1ccc(F)cc1)C(=O)[C@H](CCCCN)NC(=O)CCN(Cc1ccc(F)cc1)C(=O)[C@H](CCCCN)NC(=O)COCCOCCN)C(=O)N(CCC(=O)NCCOCCOCC(=O)N[C@@H](CCCCN)C(=O)N(CCC(=O)N[C@@H](CCCCN)C(=O)N(CCC(=O)N[C@@H](CCCCN)C(=O)N(CCC(=O)NCCOCCOCC(N)=O)Cc1ccc(F)cc1)Cc1ccc(F)cc1)Cc1ccc(F)cc1)Cc1ccc(F)cc1 [Compound 12, H-sPEG2-[X]3-sPEG2-[X]3-sPEG2-NH2]	>64 µg/mL
NCCCC[C@H](NC(=O)CCN(Cc1ccc(F)cc1)C(=O)[C@H](CCCCN)NC(=O)CCN(Cc1ccc(F)cc1)C(=O)[C@H](CCCCN)NC(=O)CCOCCOCCOCCOCCOCCOCCNC(=O)CCN(Cc1ccc(F)cc1)C(=O)[C@H](CCCCN)NC(=O)CCN(Cc1ccc(F)cc1)C(=O)[C@H](CCCCN)NC(=O)CCN(Cc1ccc(F)cc1)C(=O)[C@@H](N)CCCCN)C(=O)N(CCC(N)=O)Cc1ccc(F)cc1 [Compound 10, H-[X]3-sPEG6-[X]3-NH2]	>64 µg/mL
NCCCC[C@H](NC(=O)CCN(Cc1ccc(F)cc1)C(=O)[C@H](CCCCN)NC(=O)CCOCCOCCOCCOCCNC(=O)CCN(Cc1ccc(F)cc1)C(=O)[C@H](CCCCN)NC(=O)CCN(Cc1ccc(F)cc1)C(=O)[C@H](CCCCN)NC(=O)CCOCCOCCOCCOCCNC(=O)CCN(Cc1ccc(F)cc1)C(=O)[C@H](CCCCN)NC(=O)CCN(Cc1ccc(F)cc1)C(=O)[C@@H](N)CCCCN)C(=O)N(CCC(N)=O)Cc1ccc(F)cc1 [Compound 18, H-[X]2-sPEG4-[X]2-sPEG4-[X]2-NH2]	>64 µg/mL
NCCCC[C@H](NC(=O)CCN(Cc1ccc(F)cc1)C(=O)[C@H](CCCCN)NC(=O)CCN(Cc1ccc(F)cc1)C(=O)[C@H](CCCCN)NC(=O)CCN(Cc1ccc(F)cc1)C(=O)[C@H](CCCCN)NC(=O)CCN(Cc1ccc(F)cc1)C(=O)[C@H](CCCCN)NC(=O)CCN(Cc1ccc(F)cc1)C(=O)[C@H](CCCCN)NC(=O)CCOCCOCCOCCOCCN)C(=O)N(CCC(N)=O)Cc1ccc(F)cc1 [Compound 3, H-sPEG4-[X]6-NH2]	>64 µg/mL
NCCCC[C@H](NC(=O)CCN(Cc1ccc(F)cc1)C(=O)[C@H](CCCCN)NC(=O)CCN(Cc1ccc(F)cc1)C(=O)[C@H](CCCCN)NC(=O)CCN(Cc1ccc(F)cc1)C(=O)[C@H](CCCCN)NC(=O)CCN(Cc1ccc(F)cc1)C(=O)[C@H](CCCCN)NC(=O)CCN(Cc1ccc(F)cc1)C(=O)[C@@H](N)CCCCN)C(=O)N(CCC(N)=O)Cc1ccc(F)cc1 [Compound 1, H-[Lys-βNPhe(4-F)]6-NH2]	>64 µg/mL

# input for lookup
GET /values?readout=MIC, EF&item= NCCCC[C@H](NC(=O)CCN(Cc1ccc(F)cc1)C(=O)[C@H](CCCCN)NC(=O)CCN(Cc1ccc(F)cc1)C(=O)[C@H](CCCCN)NC(=O)CCOCCOCCOCCOCCNC(=O)CCN(Cc1ccc(F)cc1)C(=O)[C@H](CCCCN)NC(=O)CCN(Cc1ccc(F)cc1)C(=O)[C@H](CCCCN)NC(=O)CCN(Cc1ccc(F)cc1)C(=O)[C@@H](N)CCCCN)C(=O)N(CCC(N)=O)Cc1ccc(F)cc1 [Compound 9, H-[X]3-sPEG4-[X]3-NH2]
>64 µg/mL
